Tested on: Nycobacterium smegmatis ATCC 607
For each record, write down the corresponding MIC.
Numbers only, in µg/mL.

structure as smiles: CC(C)c1cc(C=C2SC(NCc3ccc(S(N)(=O)=O)cc3)=NC2=O)cc(C(C)C)c1O
reported measurement: 25

Read the next record carefully.
Q: GET /values?readout=MIC&system=Nycobacterium smegmatis ATCC 607&item= CC(C)c1cc(C=C2SC(NCc3ccccn3)=NC2=O)cc(C(C)C)c1O
Ans: 2

* * *

Test system: Bacillus subtilis IFO 3134
readout type: MIC

Sample records with MIC:
structure as smiles: N#CC(=Cc1cc(Cc2ccccc2)c(O)c(Cc2ccccc2)c1)C(N)=O
system under test: Bacillus subtilis IFO 3134
MIC: ≤ 15 µg/mL
//
structure as smiles: O=C1NC(=S)SC1=Cc1cc(-c2ccccc2)c(O)c(-c2ccccc2)c1
system under test: Bacillus subtilis IFO 3134
MIC: ≤ 6 µg/mL
//
structure as smiles: O=C1Nc2ccccc2C1=Cc1cc(O)c(O)c(CSc2ccccc2)c1
system under test: Bacillus subtilis IFO 3134
MIC: ≤ 6 µg/mL

Shift focus to the following entry.
Q: Lab note: need MIC with Bacillus subtilis IFO 3134 for entry O=C1NC(=S)SC1=Cc1cc(Cc2ccccc2)c(O)c(Cc2ccccc2)c1 , please look it up.
Ans: ≤ 6 µg/mL
